Reported mass density by item:
Conditions: 323.15 K; 100 kPa; Liquid; Vibrating tube method
Numbers after ± are expanded uncertainties.

{"columns": ["molecule", "mass density"],
 "data": [
  ["CCCCn1cc[n+](C)c1.F[B-](F)(F)F [1-butyl-3-methylimidazolium tetrafluoroborate]", "1180.33 ± 4 kg/m3"],
  ["COC(=O)OC [dimethyl carbonate]", "1029.88 ± 4 kg/m3"],
  ["CCCCn1cc[n+](C)c1.F[P-](F)(F)(F)(F)F [1-butyl-3-methylimidazolium hexafluorophosphate]", "1347.23 ± 4 kg/m3"],
  ["CCCC[n+]1ccn(C)c1.O=S(=O)([N-]S(=O)(=O)C(F)(F)F)C(F)(F)F", "1412.96 ± 4 kg/m3"]
]}

---

Details: 303.15 K; 100 kPa; Liquid; Vibrating tube method
Numbers after ± are expanded uncertainties.
measured.endpoint: mass density

{"columns": ["compound", "measured.endpoint", "reported.result"],
 "data": [
  ["CCCC[n+]1ccn(C)c1.O=S(=O)([N-]S(=O)(=O)C(F)(F)F)C(F)(F)F", "mass density", "1431.96 ± 4 kg/m3"],
  ["COC(=O)OC [dimethyl carbonate]", "mass density", "1056.63 ± 4 kg/m3"],
  ["CCCCn1cc[n+](C)c1.F[B-](F)(F)F [1-butyl-3-methylimidazolium tetrafluoroborate]", "mass density", "1195.48 ± 4 kg/m3"],
  ["CCCCn1cc[n+](C)c1.F[P-](F)(F)(F)(F)F [1-butyl-3-methylimidazolium hexafluorophosphate]", "mass density", "1361.63 ± 4 kg/m3"]
]}

---

Conditions: 318.15 K; 100 kPa; Liquid; Vibrating tube method
± gives the expanded uncertainty stated by the source.

{"columns": ["molecule", "mass density"],
 "data": [
  ["CCCCn1cc[n+](C)c1.F[B-](F)(F)F [1-butyl-3-methylimidazolium tetrafluoroborate]", "1184.13 ± 4 kg/m3"],
  ["COC(=O)OC [dimethyl carbonate]", "1036.62 ± 4 kg/m3"],
  ["CCCC[n+]1ccn(C)c1.O=S(=O)([N-]S(=O)(=O)C(F)(F)F)C(F)(F)F", "1417.89 ± 4 kg/m3"],
  ["CCCCn1cc[n+](C)c1.F[P-](F)(F)(F)(F)F [1-butyl-3-methylimidazolium hexafluorophosphate]", "1351.63 ± 4 kg/m3"]
]}

---

Settings: 298.15 K; 100 kPa; Liquid; Vibrating tube method

{"columns": ["compound", "mass density [kg/m3]"],
 "data": [
  ["CCCC[n+]1ccn(C)c1.O=S(=O)([N-]S(=O)(=O)C(F)(F)F)C(F)(F)F", 1435.96],
  ["CCCCn1cc[n+](C)c1.F[B-](F)(F)F [1-butyl-3-methylimidazolium tetrafluoroborate]", 1200.1],
  ["CCCCn1cc[n+](C)c1.F[P-](F)(F)(F)(F)F [1-butyl-3-methylimidazolium hexafluorophosphate]", 1366.5],
  ["COC(=O)OC [dimethyl carbonate]", 1063.25]
]}

---

Reported mass density by item:
Conditions: 293.15 K; 100 kPa; Liquid; Vibrating tube method

{"columns": ["compound", "quantity.unit", "mass density"],
 "data": [
  ["COC(=O)OC [dimethyl carbonate]", "kg/m3", 1069.83],
  ["CCCC[n+]1ccn(C)c1.O=S(=O)([N-]S(=O)(=O)C(F)(F)F)C(F)(F)F", "kg/m3", 1442.3],
  ["CCCCn1cc[n+](C)c1.F[B-](F)(F)F [1-butyl-3-methylimidazolium tetrafluoroborate]", "kg/m3", 1202.47],
  ["CCCCn1cc[n+](C)c1.F[P-](F)(F)(F)(F)F [1-butyl-3-methylimidazolium hexafluorophosphate]", "kg/m3", 1370.73]
]}

---

Settings: 308.15 K; 100 kPa; Liquid; Vibrating tube method
Reported mass density by item:

{"columns": ["compound", "quantity.unit", "mass density"],
 "data": [
  ["CCCCn1cc[n+](C)c1.F[B-](F)(F)F [1-butyl-3-methylimidazolium tetrafluoroborate]", "kg/m3", 1191.65],
  ["CCCC[n+]1ccn(C)c1.O=S(=O)([N-]S(=O)(=O)C(F)(F)F)C(F)(F)F", "kg/m3", 1427.23],
  ["COC(=O)OC [dimethyl carbonate]", "kg/m3", 1050.08],
  ["CCCCn1cc[n+](C)c1.F[P-](F)(F)(F)(F)F [1-butyl-3-methylimidazolium hexafluorophosphate]", "kg/m3", 1359.45]
]}

---

Reported mass density by item:
Conditions: 313.15 K; 100 kPa; Liquid; Vibrating tube method

{"columns": ["compound", "quantity.unit", "mass density"],
 "data": [
  ["CCCCn1cc[n+](C)c1.F[B-](F)(F)F [1-butyl-3-methylimidazolium tetrafluoroborate]", "kg/m3", 1187.83],
  ["COC(=O)OC [dimethyl carbonate]", "kg/m3", 1043.44],
  ["CCCCn1cc[n+](C)c1.F[P-](F)(F)(F)(F)F [1-butyl-3-methylimidazolium hexafluorophosphate]", "kg/m3", 1355.23],
  ["CCCC[n+]1ccn(C)c1.O=S(=O)([N-]S(=O)(=O)C(F)(F)F)C(F)(F)F", "kg/m3", 1422.19]
]}
